- System: KB
- ASSAY_NAME: Cytotoxicity against human KB cells after 72 hrs
- Type: functional, cell-based
METRIC_NAME: IC50

Known value: KB IC50 of the compound `C=C(C(=O)O)[C@@H]1CC[C@@]2(C)CC[C@@H](O)[C@@](C)(O)[C@@H]2C1` equals > 100 µM
